measurement protocol: physchem
details: (1:1) Water/ACN
Residues, ends and D or L forms follow the SMILES beside them.
value type: solubility

// query Please look up its solubility: CC(C)C[C@H](NC(=O)[C@@H](NC(=O)CNC(=O)CN)C(C)C)C(=O)N[C@H](C(=O)N[C@@H](CCC(N)=O)C(=O)N1CCC[C@H]1C(=O)NCC(=O)O)C(C)C [Form A] (H-GGVLVQPG-OH)
// result < 3000 µg/mL

* * *

measurement protocol: physchem
details: (1:1) Water/Dioxane
Residues, ends and D or L forms follow the SMILES beside them.
value type: solubility

// query Please look up its solubility: CC(C)C[C@H](NC(=O)[C@@H](NC(=O)CNC(=O)CN)C(C)C)C(=O)N[C@H](C(=O)N[C@@H](CCC(N)=O)C(=O)N1CCC[C@H]1C(=O)NCC(=O)O)C(C)C [Form A] (H-GGVLVQPG-OH)
// result < 3000 µg/mL
